# HLM (% inh @ 500 nM) per entry
System: CYP enzymes in human liver microsomes (HLM)
experiment_notes: Inhibition of 20-HETE production in human liver microsomes (HLM)
Assay type: biochemical
measurement_setup: 500 nM

sample_smiles | system | HLM (% inh @ 500 nM)
O=C(Cc1ccccc1)N1CCC(c2ccc(-c3cn[nH]c3)c(F)c2F)CC1 | CYP enzymes in human liver microsomes (HLM) | 82.17%
O=C1CCCN1CC1CCN(c2ccc(-c3cn[nH]c3)c(F)c2F)CC1 | CYP enzymes in human liver microsomes (HLM) | 85.53%
CCCCCCC(=O)NCC1CCN(c2ccc(-c3cn[nH]c3)cc2)CC1 | CYP enzymes in human liver microsomes (HLM) | 85.05%

----------
# RLM (% inh @ 500 nM) per entry
System: CYP enzymes in rat liver microsomes (RLM)
experiment_notes: Inhibition of 20-HETE production in rat liver microsomes (RLM)
Format: biochemical
measurement_setup: 500 nM
Experimental: Experimental principle: The inhibitory activity of 20-HETE production is evaluated by testing the inhibitory effects of the compound on human liver microsomes (HLM), rat liver microsomes (RLM), mouse liver microsomes (MLM), or […] CYP4 subtype enzymes (CYP4F2). […]

molecule | RLM (% inh @ 500 nM) / %
O=C(C1CCCC1)N1CCC2(CCN(c3ccc(-c4cn[nH]c4)cc3F)C2)C1 (centres unmarked) | 74.61
O=C(N1CCC(c2ccc(-c3cn[nH]c3)cc2F)CC1)N1CC2CCCC2C1 (centres unmarked) | 84.57
O=C1CCCN1CC1CCN(c2ccc(-c3cn[nH]c3)nc2)CC1 | 34.61
O=C1CCCN1CC1CCN(c2ccc(-c3cnoc3)c(F)c2F)CC1 | 59.01
O=C1CCCN1CC1CCN(c2ccc(-c3cn[nH]c3)cc2C(F)F)CC1 | 59.42
O=C(C1CCN(c2ccc(-c3cn[nH]c3)cc2)CC1)N1CC2CCC1C2 (centres unmarked) | 2.30
O=C(N1CCCC1)N1CC2CN(c3ccc(-c4cn[nH]c4)c(F)c3F)CC2C1 (centres unmarked) | 74.10
O=C(C1CCCC1)N1CCC(c2c(F)cc(-c3cn[nH]c3)cc2F)CC1 | 74.05

----------
Tested on: CYP enzymes in mouse liver microsomes (MLM)
experiment_notes: Inhibition of 20-HETE production in mouse liver microsomes (MLM)
Type: biochemical
I'd appreciate it if you marked entries YES when IC50 is lower than 900 nM and NO when it is not.

compound | system | label
O=C(C1CCCC1)N1CCC2(CCN(c3ccc(-c4cn[nH]c4)cc3F)C2)C1 (stereo not shown) | CYP enzymes in mouse liver microsomes (MLM) | NO
O=S1(=O)CCCCN1CC1CCN(c2ccc(-c3cn[nH]c3)cc2F)CC1 | CYP enzymes in mouse liver microsomes (MLM) | NO
O=C(N1CCC(c2ccc(-c3cn[nH]c3)cc2F)CC1)C1(O)CCCCC1 | CYP enzymes in mouse liver microsomes (MLM) | NO
O=C(N1CCC(c2ccc(-c3cn[nH]c3)c(F)c2F)CC1)C1(O)CCCCC1 | CYP enzymes in mouse liver microsomes (MLM) | YES
O=C(N1CCCC1)N1CC2CN(c3ccc(-c4cn[nH]c4)c(F)c3F)CC2C1 (stereo not shown) | CYP enzymes in mouse liver microsomes (MLM) | NO
O=C(C1CCCC1)N1CCC(c2ccc(-c3cn[nH]c3)cc2)CC1 | CYP enzymes in mouse liver microsomes (MLM) | YES
O=C(CC1CCCC1)N1CCC(c2ccc(-c3cn[nH]c3)c(F)c2F)CC1 | CYP enzymes in mouse liver microsomes (MLM) | YES
O=C(N1CCCC1)N1CCN(c2ccc(-c3cn[nH]c3)c(F)c2F)CC1 | CYP enzymes in mouse liver microsomes (MLM) | NO
O=C(N1CCN(c2ccc(-c3cn[nH]c3)cc2F)CC1)C1(O)CCCCC1 | CYP enzymes in mouse liver microsomes (MLM) | NO
O=C1CCC(C(=O)N2CCC(c3ccc(-c4cn[nH]c4)c(F)c3F)CC2)CC1 | CYP enzymes in mouse liver microsomes (MLM) | YES
O=C(N1CC=C(c2ccc(-c3cn[nH]c3)c(F)c2F)CC1)N1CCCC1 | CYP enzymes in mouse liver microsomes (MLM) | YES
O=C1CCCN1CC1CCN(c2c(F)cc(-c3cn[nH]c3)cc2F)CC1 | CYP enzymes in mouse liver microsomes (MLM) | NO
O=C(N1CCC(c2ccc(-c3cn[nH]c3)cc2F)CC1)N1CC2CCCC2C1 (stereo not shown) | CYP enzymes in mouse liver microsomes (MLM) | NO
O=C1CCCN1CC1CCN(c2ccc(-c3cn[nH]c3)cc2)CC1 | CYP enzymes in mouse liver microsomes (MLM) | NO
O=C(Nc1ccccc1)C1CCN(c2ccc(-c3cn[nH]c3)cc2)CC1 | CYP enzymes in mouse liver microsomes (MLM) | NO
O=C1CCCN1Cc1ccc(C2CCN(c3cn[nH]c3)CC2)cc1 [Reference 83, reference compound] | CYP enzymes in mouse liver microsomes (MLM) | NO
O=C(N1CCC(c2ccc(-c3cn[nH]c3)cc2F)CC1)N1Cc2ccccc2C1 | CYP enzymes in mouse liver microsomes (MLM) | YES
O=C1CCCN1CC1CCN(c2ccc(-c3cn[nH]c3)cc2F)CC1 | CYP enzymes in mouse liver microsomes (MLM) | NO
C[C@H]1CN(c2ccc(-c3cn[nH]c3)c(F)c2F)CCN1C(=O)N1CCCC1 | CYP enzymes in mouse liver microsomes (MLM) | NO

----------
Tested on: CYP enzymes in rat liver microsomes (RLM)
experiment_notes: Inhibition of 20-HETE production in rat liver microsomes (RLM)
Assay type: biochemical
# IC50 per entry

molecule | IC50 / nM
O=C1CCCN1Cc1ccc(C2CCN(c3cn[nH]c3)CC2)cc1 [Reference 83, reference compound] | 598
O=S(=O)(C1CCCCC1)N1CCC(c2ccc(-c3cn[nH]c3)cc2F)CC1 [Compound 119] | 116
O=C(NCc1ccccc1)C1CCN(c2ccc(-c3cn[nH]c3)c(F)c2F)CC1 [Compound 95] | 341
O=S(=O)(c1ccc(F)cc1)N1CCC(c2ccc(-c3cn[nH]c3)cc2F)CC1 [Compound 120] | 107
CC1CN(c2ccc(-c3cn[nH]c3)cc2F)CC(C)N1C(=O)N1CCCC1 (stereo not shown) [Compound 130] | 22.8
O=C1c2ccccc2CCN1CC1CCN(c2ccc(-c3cn[nH]c3)cc2)CC1 [Compound 42] | 605
O=C(N1CCC(c2ccc(-c3cn[nH]c3)cc2F)CC1)N1CC2CCCC2C1 (stereo not shown) [Compound 106] | 10.7
O=C1CCCCN1CC1CCN(c2ccc(-c3cn[nH]c3)cc2)CC1 [Compound 25] | 159
O=C(N1CCC(c2ccc(-c3cn[nH]c3)c(F)c2F)CC1)C1(O)CCCCC1 [Compound 110] | 29.5
O=C(N1CCCC1)N1CC2CN(c3ccc(-c4cn[nH]c4)c(F)c3F)CC2C1 (stereo not shown) [Compound 127] | 17.9

----------
experiment_notes: Pharmacokinetic (PK) experiment, oral administration in rats
Type: in vivo, Male SD rats
measurement_setup: male, SD, rat, plasma, 20 mg/kg
test_readout: half-life (h)

molecule | unit_of_measurement | reading
O=C(C1CCN(c2ccc(-c3cn[nH]c3)cc2)CC1)N1Cc2ccccc2C1 [Compound 66] | h | 12.5
O=C(CCCCCc1ccccc1)NCC1CCN(c2ccc(-c3cn[nH]c3)cc2)CC1 [Compound 113] | h | 2.93
O=C(C1CCCC1)N1CCC(c2ccc(-c3cn[nH]c3)cc2)CC1 [Compound 70] | h | 2.57
O=C(N1CCCC1)N1CCN(c2ccc(-c3cn[nH]c3)c(F)c2F)CC1 [Compound 72] | h | 2.51
O=C1CCCN1CC1CCN(c2ccc(-c3cn[nH]c3)cc2F)CC1 [Compound 2] | h | 5.2
O=C1CCCN1CC1CCN(c2ccc(-c3cn[nH]c3)c(F)c2F)CC1 [Compound 4] | h | 3.9
O=C1CCCN1CC1CCN(c2ccc(-c3cn[nH]c3)cc2)CC1 [Compound 1] | h | 7.23
O=C(N1CCCC1)N1CCC(c2ccc(-c3cn[nH]c3)c(F)c2F)CC1 [Compound 71] | h | 2.41
O=C1CCCCN1CC1CCN(c2ccc(-c3cn[nH]c3)c(F)c2F)CC1 [Compound 26] | h | 2.93
O=C1CCCN1Cc1ccc(C2CCN(c3cn[nH]c3)CC2)cc1 [Reference 83, reference compound] | h | 3.53
O=S1(=O)CCCCN1CC1CCN(c2ccc(-c3cn[nH]c3)cc2F)CC1 [Compound 163] | h | 4.03
O=C(C1CCN(c2ccc(-c3cn[nH]c3)cc2F)CC1)N1CC2CCCC2C1 (stereo not drawn) [Compound 153] | h | 3.26

----------
# HLM (% inh @ 500 nM) per entry
Test system: CYP enzymes in human liver microsomes (HLM)
experiment_notes: Inhibition of 20-HETE production in human liver microsomes (HLM)
Format: biochemical
measurement_setup: 500 nM
test_readout: HLM (% inh @ 500 nM)

sample_smiles | system | reading
C[C@H]1CN(c2ccc(-c3cn[nH]c3)c(F)c2F)CCN1C(=O)N1CCCC1 | CYP enzymes in human liver microsomes (HLM) | 79.54%
O=C1CCCN1CC1CCN(c2ccc(-c3cn[nH]c3)cc2F)CC1 | CYP enzymes in human liver microsomes (HLM) | 79.50%
O=C(C1CCC(F)(F)CC1)N1CCC(c2ccc(-c3cn[nH]c3)c(F)c2F)CC1 | CYP enzymes in human liver microsomes (HLM) | 78.37%

Sourced from patent US20250034116A1
